Tested on: Fibroblast
Experiment: Multiplex assay against human fibroblast
Format: toxicity, cell-based
Conditions: 12 h, 1 µM, compound concentration 1 uM, replicate 2
Population Healthy Nuclei (%) values for the compounds below.
property label: Population Healthy Nuclei (%)

CN1CCC(=C2c3ccccc3CC(=O)c3sccc32)CC1.O=C(O)/C=C/C(=O)O [KETOTIFEN FUMARATE]
87
CCOC(=O)c1c(C)[nH]c2ccc3c(c12)CN1CCc2cc(OC)ccc2C1O3 (stereo not given)
76
CNc1cc(Oc2cc(C(=O)Nc3cc(N4CCN(C)CC4)cc(C(F)(F)F)c3)ccc2C)ncn1
73
CCCS(=O)(=O)c1nc(NC2CC2)cc(-c2ccc3c(ccn3C3CC(C)(C)NC(C)(C)C3)c2)n1
71
CCn1cc(-c2ccnc3[nH]c(-c4cccc(CN(C)C)c4)cc23)c(-c2ccc(NC(=O)N(C)C)cc2)n1
34
CCc1cccc(CC)c1NC(=O)c1nn(C)c2c1CCc1cnc(Nc3ccc(C(=O)NC4CCN(C)CC4)cc3OC(F)(F)F)nc1-2
83
O=C1N/C(=N/c2ccccc2F)S/C1=C\c1ccc(C(=O)O)cc1
92
CN1C2CCC1CC(OC(c1ccc(F)cc1)c1ccc(F)cc1)C2.Cl (stereo not given)
92
CCN1CCN(Cc2ccc(Nc3ncc(F)c(-c4cc(F)c5nc(C)n(C(C)C)c5c4)n3)nc2)CC1.CS(=O)(=O)O
67
O=C(Cc1ccc(-c2ccc(OCCN3CCOCC3)cc2)cn1)NCc1ccccc1
90
Cc1ccc(C(=O)Nc2cccc(C(F)(F)F)c2)cc1Nc1nc(-c2cccnc2)nc2c1cnn2C
73
COc1ccc(-c2ccc3c(N4CCOCC4)nc(N4C[C@@H](C)O[C@@H](C)C4)nc3n2)cc1CO
30
CCOc1cc2ncc(C#N)c(Nc3ccc(OCc4ccccn4)c(Cl)c3)c2cc1NC(=O)/C=C/CN(C)C
82
COc1cccc2cc(-c3nc([C@H]4CC[C@H](C(=O)O)CC4)n4ncnc(N)c34)[nH]c12
22
C=C1/C(=C\C=C2/CCC[C@]3(C)[C@@H]([C@H](C)/C=C/[C@H](C)C(C)C)CC[C@@H]23)C[C@@H](O)C[C@@H]1O
90

====

Test system: HEK-293T
Assay: Multiplex assay against HEK293T
Assay type: toxicity, cell-based
Conditions: human, 24 h, 1 µM, compound concentration 1 uM, replicate 2
property label: Total Cell Count

C=C1/C(=C\C=C2/CCC[C@]3(C)[C@@H]([C@H](C)/C=C/[C@H](C)C(C)C)CC[C@@H]23)C[C@@H](O)C[C@@H]1O
305
O=C(Nc1ccc(-c2ccnc(Nc3ccc(N4CCOCC4)cc3)n2)cc1)[C@@H]1CCCN1
303
CN1C2CCC1CC(OC(c1ccc(F)cc1)c1ccc(F)cc1)C2.Cl (configuration not stated)
305
COc1ccc(-c2ccc3c(N4CCOCC4)nc(N4C[C@@H](C)O[C@@H](C)C4)nc3n2)cc1CO
2828
CCN1CCN(Cc2ccc(Nc3ncc(F)c(-c4cc(F)c5nc(C)n(C(C)C)c5c4)n3)nc2)CC1.CS(=O)(=O)O
201
CN1CCC(=C2c3ccccc3CC(=O)c3sccc32)CC1.O=C(O)/C=C/C(=O)O [KETOTIFEN FUMARATE]
251
COc1ccc(S(=O)(=O)N(CCO)c2ccccc2CN(C)C/C=C/c2ccc(Cl)cc2)cc1.O=P(O)(O)O
913
